experimental protocol: Inhibition of HCV NS3 4A protease
Design: species or system Hepacivirus hominis
property measured: Ki

Param item = CCC[C@H](NC(=O)[C@@H]1[C@H]2CCC[C@H]2CN1C(=O)[C@@H](NC(=O)[C@@H](NC(=O)c1ncc[nH]1)C1CCCCC1)C(C)(C)C)C(=O)C(=O)NC1CC1 ; retrieve measured Ki.
30 nM

---

Tested on: Plasma
experimental protocol: Drug level in CD1 mouse plasma at 50 mg/kg, po
Type: ADME, organism-based
Design: dose 50 mg/kg, route oral
condition parameters: in vivo
Quick reference: log10 of concentration of the listed items.
Remember, log10 of concentration, in nM.

>>> recorded_value("CCC[C@H](NC(=O)[C@@H]1C[C@@H]2CCCC[C@@H]2N1C(=O)[C@@H](NC(=O)[C@@H](NC(=O)c1nccn1C)C1CCCCC1)C(C)(C)C)C(=O)C(=O)NC1CC1")
2.23
>>> recorded_value("CCC[C@H](NC(=O)[C@@H]1C[C@@H]2CCCC[C@@H]2N1C(=O)[C@@H](NC(=O)[C@@H](NC(=O)c1ncc[nH]1)C1CCCCC1)C(C)(C)C)C(=O)C(=O)NC1CC1")
1.00
>>> recorded_value("CCC[C@H](NC(=O)[C@@H]1C[C@@H]2CCCC[C@@H]2N1C(=O)[C@@H](NC(=O)[C@@H](NC(=O)c1cnccn1)C1CCCCC1)C(C)(C)C)C(=O)C(=O)NC1CC1")
2.26

Param item = CCC[C@H](NC(=O)[C@@H]1[C@H]2CCC[C@H]2CN1C(=O)[C@@H](NC(=O)[C@@H](NC(=O)c1ncc[nH]1)C1CCCCC1)C(C)(C)C)C(=O)C(=O)NC1CC1 ; retrieve measured log10 of concentration.
1.60

Param item = CCC[C@H](NC(=O)[C@@H]1[C@H]2CCC[C@H]2CN1C(=O)[C@@H](NC(=O)[C@@H](NC(=O)c1cnccn1)C1CCCCC1)C(C)(C)C)C(=O)C(=O)NC1CC1 ; retrieve measured log10 of concentration.
2.57

Param item = CCC[C@H](NC(=O)[C@@H]1C[C@@H]2CCCC[C@@H]2N1C(=O)[C@@H](NC(=O)[C@@H](NC(=O)c1ccc[nH]1)C1CCCCC1)C(C)(C)C)C(=O)C(=O)NC1CC1 ; retrieve measured log10 of concentration.
1.60

---

Quick reference: AUC of the listed items.
Tested on: Mus musculus
experimental protocol: AUC(0 to 8 hrs) in CD1 mouse liver at 50 mg/kg, po
Assay type: ADME, organism-based
Set-up: dose 50 mg/kg, route oral
condition parameters: in vivo, 6 h
# output: bare number, implied unit nM·h

Below are worked cases with known answers.
>>> recorded_value("CCC[C@H](NC(=O)[C@@H]1C[C@@H]2CCCC[C@@H]2N1C(=O)[C@@H](NC(=O)[C@@H](NC(=O)c1nccn1C)C1CCCCC1)C(C)(C)C)C(=O)C(=O)NC1CC1")
2100
>>> recorded_value("CCC[C@H](NC(=O)[C@@H]1C[C@@H]2CCCC[C@@H]2N1C(=O)[C@@H](NC(=O)[C@@H](NC(=O)c1cc([N+](=O)[O-])c[nH]1)C1CCCCC1)C(C)(C)C)C(=O)C(=O)NC1CC1")
60
>>> recorded_value("CCC[C@H](NC(=O)[C@@H]1C[C@@H]2CCCC[C@@H]2N1C(=O)[C@@H](NC(=O)[C@@H](NC(=O)c1ccc[nH]1)C1CCCCC1)C(C)(C)C)C(=O)C(=O)NC1CC1")
1300
>>> recorded_value("CCC[C@H](NC(=O)[C@@H]1[C@H]2CCC[C@H]2CN1C(=O)[C@@H](NC(=O)[C@@H](NC(=O)c1cnccn1)C1CCCCC1)C(C)(C)C)C(=O)C(=O)NC1CC1")
19000
>>> recorded_value("CCC[C@H](NC(=O)[C@@H]1[C@H]2CCC[C@H]2CN1C(=O)[C@@H](NC(=O)[C@@H](NC(=O)c1ncc[nH]1)C1CCCCC1)C(C)(C)C)C(=O)C(=O)NC1CC1")
10500

Can you look up AUC on Mus musculus for CCC[C@H](NC(=O)[C@@H]1C[C@@H]2CCCC[C@@H]2N1C(=O)[C@@H](NC(=O)[C@@H](NC(=O)c1cnccn1)C1CCCCC1)C(C)(C)C)C(=O)C(=O)NC1CC1 ?
2900

Can you look up AUC on Mus musculus for CCC[C@H](NC(=O)[C@@H]1C[C@@H]2CCCC[C@@H]2N1C(=O)[C@@H](NC(=O)[C@@H](NC(=O)c1ncc[nH]1)C1CCCCC1)C(C)(C)C)C(=O)C(=O)NC1CC1 ?
470

---

experimental protocol: Inhibition of HCV NS3 4A protease
Design: species or system Hepacivirus hominis
property measured: pKi
The scale used: pKi is minus the common logarithm of the concentration in molar units.

>>> recorded_value("CCC[C@H](NC(=O)[C@@H]1C[C@@H]2CCCC[C@@H]2N1C(=O)[C@@H](NC(=O)[C@@H](NC(=O)c1ccc[nH]1)C1CCCCC1)C(C)(C)C)C(=O)C(=O)NC1CC1")
7.05
>>> recorded_value("CCC[C@H](NC(=O)[C@@H]1C[C@@H]2CCCC[C@@H]2N1C(=O)[C@@H](NC(=O)[C@@H](NC(=O)c1ncc[nH]1)C1CCCCC1)C(C)(C)C)C(=O)C(=O)NC1CC1")
6.92

Param item = CCC[C@H](NC(=O)[C@@H]1C[C@@H]2CCCC[C@@H]2N1C(=O)[C@@H](NC(=O)[C@@H](NC(=O)C(=O)NC1CC1)C1CCCCC1)C(C)(C)C)C(=O)C(=O)NC1CC1 ; retrieve measured pKi.
6.96

Param item = CCC[C@H](NC(=O)[C@@H]1C[C@@H]2CCCC[C@@H]2N1C(=O)[C@@H](NC(=O)[C@@H](NC(=O)C1(O)CCCC1)C1CCCCC1)C(C)(C)C)C(=O)C(=O)NC1CC1 ; retrieve measured pKi.
6.19

Param item = CCC[C@H](NC(=O)[C@@H]1C[C@@H]2CCCC[C@@H]2N1C(=O)[C@@H](NC(=O)[C@@H](NC(=O)c1cnc2ccccc2n1)C1CCCCC1)C(C)(C)C)C(=O)C(=O)NC1CC1 ; retrieve measured pKi.
6.36

---

Test system: Liver
experimental protocol: Drug level in CD1 mouse liver at 50 mg/kg, po
Format: ADME, organism-based
Parameters: dose 50 mg/kg, route oral
condition parameters: in vivo, read-out: Activity
We use 200 nM as the dividing line for concentration: on or above the line is t, below is f.

>>> class_label("CCC[C@H](NC(=O)[C@@H]1C[C@@H]2CCCC[C@@H]2N1C(=O)[C@@H](NC(=O)[C@@H](NC(=O)c1nccn1C)C1CCCCC1)C(C)(C)C)C(=O)C(=O)NC1CC1")
"t"

Answer whether concentration of CCC[C@H](NC(=O)[C@@H]1[C@H]2CCC[C@H]2CN1C(=O)[C@@H](NC(=O)[C@@H](NC(=O)c1ncc[nH]1)C1CCCCC1)C(C)(C)C)C(=O)C(=O)NC1CC1 is greater than or equal to 200 nM.
t

Answer whether concentration of CCC[C@H](NC(=O)[C@@H]1C[C@@H]2CCCC[C@@H]2N1C(=O)[C@@H](NC(=O)[C@@H](NC(=O)c1cnccn1)C1CCCCC1)C(C)(C)C)C(=O)C(=O)NC1CC1 is greater than or equal to 200 nM.
t

Answer whether concentration of CCC[C@H](NC(=O)[C@@H]1C[C@@H]2CCCC[C@@H]2N1C(=O)[C@@H](NC(=O)[C@@H](NC(=O)c1ncc[nH]1)C1CCCCC1)C(C)(C)C)C(=O)C(=O)NC1CC1 is greater than or equal to 200 nM.
f

Answer whether concentration of CCC[C@H](NC(=O)[C@@H]1[C@H]2CCC[C@H]2CN1C(=O)[C@@H](NC(=O)[C@@H](NC(=O)c1cnccn1)C1CCCCC1)C(C)(C)C)C(=O)C(=O)NC1CC1 is greater than or equal to 200 nM.
t

Answer whether concentration of CCC[C@H](NC(=O)[C@@H]1C[C@@H]2CCCC[C@@H]2N1C(=O)[C@@H](NC(=O)[C@@H](NC(=O)c1ccc[nH]1)C1CCCCC1)C(C)(C)C)C(=O)C(=O)NC1CC1 is greater than or equal to 200 nM.
f

Answer whether concentration of CCC[C@H](NC(=O)[C@@H]1C[C@@H]2CCCC[C@@H]2N1C(=O)[C@@H](NC(=O)[C@@H](NC(=O)c1cc([N+](=O)[O-])c[nH]1)C1CCCCC1)C(C)(C)C)C(=O)C(=O)NC1CC1 is greater than or equal to 200 nM.
f

---

experimental protocol: Cytotoxicity against Huh7 cells by MTS assay
Assay type: cell-based, Huh-7
condition parameters: human
property measured: CC50

Below are worked cases with known answers.
>>> recorded_value("CCC[C@H](NC(=O)[C@@H]1C[C@@H]2CCCC[C@@H]2N1C(=O)[C@@H](NC(=O)[C@@H](NC(=O)c1cccnc1)C1CCCCC1)C(C)(C)C)C(=O)C(=O)NC1CC1")
"> 100 µM"
>>> recorded_value("CCC[C@H](NC(=O)[C@@H]1C[C@@H]2CCCC[C@@H]2N1C(=O)[C@@H](NC(=O)[C@@H](NC(=O)c1nccn1C)C1CCCCC1)C(C)(C)C)C(=O)C(=O)NC1CC1")
"> 100 µM"

Now for the compound whose CC50 we want.
Param item = CCC[C@H](NC(=O)[C@@H]1C[C@@H]2CCCC[C@@H]2N1C(=O)[C@@H](NC(=O)[C@@H](NC(=O)c1cc2cc(F)ccc2[nH]1)C1CCCCC1)C(C)(C)C)C(=O)C(=O)NC1CC1 ; retrieve measured CC50.
> 100 µM
